Recorded values, source patent US20210332111A1.

As shown below, each of these binders has a reported t1/2 value.
- assayed system: recombinant ZIKV DIII (domain III of the E protein, strain H/PF/2013, residues 299 to 407) (Zika virus, strain H/PF/2013, UniProt A0A024B7W1 591-694)
- Sequence (A0A024B7W1 591-694 limits assumed): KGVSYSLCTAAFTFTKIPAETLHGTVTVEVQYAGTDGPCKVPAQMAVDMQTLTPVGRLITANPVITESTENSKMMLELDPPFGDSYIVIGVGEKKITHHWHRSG
- experiment notes: BLI; half-life calculated from the dissociation constant, kd kinetic
The figure you give is taken to be in min; do not add the unit.

{"binder": "ZV-67 monoclonal antibody (antibody, V domains shown, also called ZIKV-67) VH: QAQLQQSGTGLARPGASVKLSCKASGYTFTSYGISWVTQRAGQGLEWIGVIYPRSGNTYYNEKFRGKATLTADKSSSSAYMELRGLTAEDSAVYFCARENYGSVYWGQGTTLTVSS VL: DIVMTQSQKFMSTSVGDRVSITCKASQNVGTAVAWYQQKPGQSPKLLIYSASNRYTGVPDRFTGSGSGTDFTLTISNMQSEDLADYFCQQFSSYPYTFGGGTKLEIK", "t1/2 / min": 13.8}

// t1/2 lookup, key: ZV-2 monoclonal antibody (antibody, V domains shown, also called ZIKV-2) VH: QVQLQESGAELMKPGASVKLSCKTSGYTFIGYWIEWLKQRPGHGLEWVGEIFPGSGRTKYNEKFKGRATFTADTSSNMAYMQLSSLTTEDSAIYYCARYYYGSYYALDYWGQGTSVTVSS VL: DIVMTQSPSSLSVSAGEKVTLSCKSSQSLLHSGNQKNYLAWYQQKPGQAPKLLIYGASTRESGVPDRFTGSGSGTDFTLTISSVQAEDLAVYYCQNDHSYPLTFGAGTKLELK 0.3

// t1/2 lookup, key: ZV-48 monoclonal antibody (antibody, V domains shown, also called ZIKV-48) VH: QVQLQQPGAELLKPGASVKLSCKASGYSFSNYWMHWVKQRPGQGPEWIGMIHPNSGNTKYNEKFKNKATLTVDKSSSMVYMQLSSLTSEDSAVFYCARLGNDMDYWGQGTSVTVSS VL: DIVMSQSPSSLAVSVGEKITMSCKSSQSLLYSNNEKNYLAWYQQKPGQSPKLLIYWASARDSGVPDRFTGSGSGTDFTLTISSVKAEDLAVFYCQQYYSYPYTFGGGTKLEIK 3.2

// t1/2 lookup, key: ZV-54 monoclonal antibody (antibody, V domains shown, also called ZIKV-54) VH: QVQLQQSGVGLARPGTSVKLSCKASGYSFTTYGISWVTQRPGQGLEWIGVIYPRSNNTYYNERFRGKATLTADKSSSSAYLELRGLTAEDSAVYFCARENYGSVYWGQGTTLTVSS VL: DIVMTQSQKFMSTSVGDRVTITCKASQSVGTAVAWYHQKPGQSPKLLIYSASNRYTGVPDRFTGSGSGTDFTLTITYMQSEDLADYFCQQFSNYPFTFGGGTKLEIK 33
